# Tested on: SK-MEL-2 melanoma
# measurement-protocol: NCI-60 one-dose screen, 48 h (100 = growth as untreated, 0 = no growth, -100 = all killed)
# measurement-conditions: 10 µM unless noted
The panel holds about 83,000 compounds, 20% with a hit somewhere; the sample as a whole holds those more often.
Catalogue of molecules with associated growth
reported-metric: growth (%)

molecule: CN(C)CCCNC(=O)C(c1ccccc1)c1ccccc1
tested-on: SK-MEL-2 melanoma
experimental-value: 95.6
//
molecule: CC[C@H](C)[C@@H]1NC(=O)[C@H]([C@@H](C)O)NC(=O)C(Cc2ccccc2)NC(=O)[C@@H]2CCCN2C(=O)C(C(C)C)NC(=O)C(Cc2ccccc2)NC(=O)CNC(=O)[C@@H]2CCCN2C1=O (stereo not given in full)
tested-on: SK-MEL-2 melanoma
experimental-value: 88.9
//
molecule: CC/C(=C(\c1ccc(O)cc1)c1ccc(OCCN(C)CCN(C)C(=O)CCC(=O)c2c(C)[nH]c(/C=C3\N=C(c4ccc[nH]4)C=C3OC)c2C)cc1)c1ccccc1
tested-on: SK-MEL-2 melanoma
experimental-value: 96.8
//
molecule: CC(C)(C)c1cn2cccc(C(=O)N3CCN(CC(=O)Nc4ccc(Cl)cc4C(=O)c4ccccc4Cl)CC3)c2n1
tested-on: SK-MEL-2 melanoma
experimental-value: 65.4
//
molecule: O=C(CC(O)c1ccncc1)c1ccccc1 (stereo not given)
tested-on: SK-MEL-2 melanoma
experimental-value: 57.1
//
molecule: O=C(O)Cc1ccc2c(c1)Cc1cccnc1O2
tested-on: SK-MEL-2 melanoma
experimental-value: 104
//
molecule: CC(C)C(C(=O)CCN(C)C)c1ccc(Cl)cc1 (stereo not given)
tested-on: SK-MEL-2 melanoma
experimental-value: 98.4
//
molecule: COc1cc(/C=C2\CCCC3=C2N=C2SC(C)=NN2C3c2cc(OC)c(OC)c(OC)c2)cc(OC)c1OC (stereo not given)
tested-on: SK-MEL-2 melanoma
experimental-value: 77.5
//
molecule: COc1ccc(NC(=S)/N=c2\oc3c(OC)cccc3cc2-c2cc3ccccc3[nH]2)cc1
tested-on: SK-MEL-2 melanoma
experimental-value: 90.2
//
molecule: c1ccc([P+](CCC[P+](c2ccccc2)(c2ccccc2)c2ccccc2)(c2ccccc2)c2ccccc2)cc1
tested-on: SK-MEL-2 melanoma
experimental-value: 71.1
//
molecule: CC(C)C[C@H](NC(=O)Cn1ccc(NCc2ccccc2)cc1=O)B(O)O
tested-on: SK-MEL-2 melanoma
experimental-value: -6.74
//
molecule: CCCCCc1c(C)[nH]c(/C=c2\[nH]/c(=C3/C=c4ccccc4=N3)cc2OC)c1C
tested-on: SK-MEL-2 melanoma
experimental-value: -73.9
//
molecule: COc1cccc2cc(-c3cc4ccccc4[nH]3)/c(=N/C(=S)Nc3ccccc3)oc12
tested-on: SK-MEL-2 melanoma
experimental-value: 91.5
//
molecule: CN(C)c1ncc(-c2ccc(C(F)(F)F)cc2)c(NC2CCCCCC2)n1
tested-on: SK-MEL-2 melanoma
experimental-value: 56.6
//
molecule: Nc1cccc2c1CN(C1CCC(=O)NC1=O)C2=O (stereo not given)
tested-on: SK-MEL-2 melanoma
experimental-value: 113
//
molecule: COc1cc2nc(N3CCC[C@@H](NC4=CC(=O)c5ccccc5C4=O)C3)nc(N)c2cc1OC
tested-on: SK-MEL-2 melanoma
experimental-value: 109
//
molecule: O=C(Nc1ccc(Br)c(Cl)c1)c1cc(F)ccc1O
tested-on: SK-MEL-2 melanoma
experimental-value: -32.6
//
molecule: O=C(Nc1ccc(I)cc1)c1cccc([N+](=O)[O-])c1O
tested-on: SK-MEL-2 melanoma
experimental-value: -11.9
//
molecule: O=C(Nc1ccc(I)cc1)c1cc([N+](=O)[O-])ccc1O
tested-on: SK-MEL-2 melanoma
experimental-value: -0.392
//
molecule: CCOP(=O)(CCN1CCN(CCCCCOc2cc3c(cc2OC)C(=O)N2CCC[C@H]2C=N3)CC1)OCC
tested-on: SK-MEL-2 melanoma
experimental-value: 33.6
//
molecule: Nc1c(C(=O)Nc2c(Cl)cccc2Cl)sc2nc3c(cc12)CCCCC3
tested-on: SK-MEL-2 melanoma
experimental-value: 62.8
//
molecule: O=C(Nc1ccc(Cl)cc1)c1cc(-c2ccc(F)cc2)c2sc(=O)[nH]c2n1
tested-on: SK-MEL-2 melanoma
experimental-value: 14.3
//
molecule: Cc1ccc2c(c1)C(C)Cc1c(ncnc1-n1cnc3ccccc31)N2C (stereo not given)
tested-on: SK-MEL-2 melanoma
experimental-value: 38.6
//
molecule: O=C1N=C(c2c(-c3[nH]c(=O)c4ccc(Br)cc4c3O)c(O)c3ccccc3c2O)C(=O)c2cc(Br)ccc21
tested-on: SK-MEL-2 melanoma
experimental-value: -14.7
//
molecule: CCN1C(=O)N(CC)C2Nn3c(s/c(=C4\C(=O)N(C5CCCC5)c5ccccc54)c3=O)=NC21 (stereo not given)
tested-on: SK-MEL-2 melanoma
experimental-value: 75.9
//
molecule: COc1cc(Cn2c(SCC(=O)Nc3cc(OC)c(OC)c(OC)c3)nc3ccccc3c2=O)cc(OC)c1OC
tested-on: SK-MEL-2 melanoma
experimental-value: 75.1
//
molecule: COc1ccc(NC(=O)/N=c2\oc3c(OC)cccc3cc2-c2cc3ccccc3[nH]2)cc1
tested-on: SK-MEL-2 melanoma
experimental-value: 75.9
//
molecule: CC(=O)N1Cc2ccccc2C(C)Cc2cc(Cl)ccc21 (stereo not given)
tested-on: SK-MEL-2 melanoma
experimental-value: 105
//
molecule: Clc1ccc(-c2nc(-c3ccco3)cn3ccnc23)cc1
tested-on: SK-MEL-2 melanoma
experimental-value: 100
//
molecule: CN(C)C/C=C/C(=O)Nc1cc2c(Nc3ccc(F)c(Cl)c3F)ncnc2cc1OCCOC(F)F
tested-on: SK-MEL-2 melanoma
experimental-value: 44.1
//
molecule: Clc1ccc2c(c1)NC1(CCSc3ccccc31)n1nccc1-2 (stereo not given)
tested-on: SK-MEL-2 melanoma
experimental-value: 98.7
//
molecule: CC(=O)/C=C/c1cc2cc(Cl)ccc2[nH]c1=O
tested-on: SK-MEL-2 melanoma
experimental-value: 87.9
//
molecule: Cc1nn(-c2ccc(Cl)cc2)c(=O)n1CCOc1ccccc1Cl
tested-on: SK-MEL-2 melanoma
experimental-value: 126
//
molecule: CCNCc1ccncc1
tested-on: SK-MEL-2 melanoma
experimental-value: 106
//
molecule: O=[N+]([O-])c1cccc(-c2cc(-c3cc(Br)ccc3O)[nH]n2)c1
tested-on: SK-MEL-2 melanoma
experimental-value: 24
//
molecule: CCOC(=O)C1=C(C)NC(=O)NC1c1ccc(OCC(=O)N/N=C/c2ccc(Cl)cc2)cc1 (stereo not given)
tested-on: SK-MEL-2 melanoma
experimental-value: 94.3
//
molecule: Cc1cccc(NC(=O)c2sc3nc4c(cc3c2N)CCC4)c1C
tested-on: SK-MEL-2 melanoma
experimental-value: 26.3
//
molecule: CNC(=O)Cc1nc(-c2cccc(NS(=O)(=O)c3c(F)cccc3F)c2F)c(-c2ccnc(Nc3ccccc3)n2)s1
tested-on: SK-MEL-2 melanoma
experimental-value: 55.2
//
molecule: CCC1CCc2nc3sc(C(=O)Nc4ccccc4C)c(N)c3cc2C1 (stereo not given)
tested-on: SK-MEL-2 melanoma
experimental-value: 21.9
//
molecule: c1ccn2nnnc2c1
tested-on: SK-MEL-2 melanoma
experimental-value: 104
